Data provenance: patent US20250011316A1

Assay: Solubility Assay (HPLC)
Assay type: physicochemical
Conditions: HEPES/NaCl buffer, aqueous with cosolvent or surfactant or cyclodextrin, kinetic from dmso stock; 20 mM HEPES, 100 mM NaCl, pH 7.5, 18-24 hours at ambient temperature; read-out: Solubility
metricName: solubility

Worked examples, 3 compounds total:
• C=C(NC(=O)c1csc(-c2cccc(COCCOC)c2)n1)C(=O)NC(=C)C(=O)OC = < 100 µM
• C=C(NC(=O)c1csc(N2CCC(NC(=O)OCCOC)CC2)n1)C(=O)NC(=C)C(=O)OC = > 1000 µM
• C=C(NC(=O)c1csc(-c2ccc(CNC(=O)CCNC(=O)OC(C)(C)C)cc2)n1)C(=O)NC(=C)C(=O)OC = < 100 µM

Lookup: Consider the compound `C=C(NC(=O)c1csc(N2CCC(COC(=O)NCCCOC)CC2)n1)C(=O)NC(=C)C(=O)OC` and give its measured solubility.
Found: 100 to 1000 µM

Lookup: Same read-out for `C=C(NC(=O)c1csc(-c2ccc(OCCOC)cc2)n1)C(=O)NC(=C)C(=O)OC` ?
Found: < 100 µM
